Taken from PubChem BioAssay (NCI).

tested on: KM12 colon; assay: NCI-60 one-dose screen, 48 h; settings: 10 µM unless noted
Compounds without any hit were thinned out: in the full panel of roughly 83,000, 20% have a hit. The source made the active and inactive calls. The calls were made as follows: active = growth percent below 10; inactive = the rest.
Choose one outcome from this list and give only that: 1 for active, 0 for inactive

Challenge: Assay outcome for COc1ccc(C2CC(c3ccccc3)=NN2C(=O)c2cc(OC)c(OC)c(OC)c2)cc1O (centres undefined) : what was it?
Response given: 0

----------
system: SF-539 CNS; experiment: NCI-60 one-dose screen, 48 h; conditions: 10 µM unless noted
About 83,000 compounds went through this panel and 20% of them were active in at least one assay; those are over-represented in the sample as a whole. Calls of active or inactive are those of the source. Rule for the calls: active = growth percent below 10; inactive = the rest.
Respond only with the outcome that fits, drawn from active, inactive

Challenge: For this compound, state the assay outcome: COc1cc(/C=C/C(=O)c2cc(OC)c(OC)c(OC)c2)ccc1Oc1nc2c(c(=O)n(C)c(=O)n2C)n1C
Response given: active

Challenge: Follow-up item: C=C1C(=O)O[C@H]2[C@H]1CC/C(COC(=O)NCc1ccc(Cn3c(=O)sn(-c4ccc(I)cc4)c3=O)cc1)=C\CC[C@@]1(C)O[C@@H]21
Response given: inactive

Further cases:
Challenge: I would be grateful if you could indicate the recorded call for CCNC(=O)N1CCc2c(Br)c3c(c(OC)c2C1Cc1ccc(OC)cc1)OCO3 (centres undefined) .
Response given: inactive

Challenge: What do you have for CC1=C(Cl)C(=O)c2cc(C)ccc2C1=O ?
Response given: inactive

Challenge: Repeat with O=C(/C=C/c1cccc(Oc2ccccc2)c1)c1ccc(Nc2nc(Nc3ccc(F)cc3)nc(Nc3ccc(Cl)cc3)n2)cc1
Response given: inactive

Challenge: Likewise for Cc1cc(NCCCNc2ccnc3cc(Cl)ccc23)nc(Nc2ccc(C(=O)N3CCCCC3)cc2)n1 ?
Response given: active

Challenge: Now give it for Cc1ccc(OCCOCCOCCOc2ccc(C)n(O)c2=S)c(=S)n1O too.
Response given: inactive

Challenge: Another compound: CCN(CCNc1ccc(C)c2sc3cc(Cl)ccc3c(=O)c12)CC(C)(C)O
Response given: inactive

Challenge: // same read-out, input: O=c1ccc2ccc(OCCN3CCCCC3)cc2o1
Response given: inactive

Challenge: Now consider CCN1C(=O)N(c2ccccc2)C2NC(=S)N(/N=C/C=C/c3ccccc3OC)C21 (centres undefined) and answer again.
Response given: active

Challenge: Another compound to check: COC12C=C/C(=C(/C(=O)OCc3csc(SC)n3)C(=O)CCCCCCCCC3(OC)C=C/C(=C(/C(=O)OCc4cnc(SC)s4)C(=O)CCCCCCCC1)O3)O2 (centres undefined)
Response given: inactive

Challenge: Moving on to CCOC(=O)NC(=S)n1oc(=O)c2ccccc21
Response given: inactive

Challenge: Now try COc1cc(C=Nc2oc(-c3ccccc3)c(-c3ccccc3)c2C#N)cc(CN2CCCC2)c1O .
Response given: inactive

Challenge: Now try O=C(/C=C/c1ccccc1)c1ccc(-n2cc(CN3CCN(c4cc5c(cc4F)c(=O)c(C(=O)O)cn5C4CC4)CC3)nn2)cc1 .
Response given: inactive

Challenge: Ok, now Ic1ccc(Nc2nc3nonc3nc2Nc2ccc(I)cc2)cc1
Response given: inactive

Challenge: Cool, now Cc1nc2sc(C(=O)Nc3ccccn3)c(N)c2cc1C(C)O (centres undefined)
Response given: inactive

Challenge: Queued: Nc1nc(N)c2c(n1)NC(c1cccc(Nc3ccnc4cc(C(F)(F)F)ccc34)c1)CC(c1ccc3c(c1)OCO3)=N2 (centres undefined)
Response given: inactive

Challenge: Repeat for the following compound: OC1CSSC1Cn1cnc2c(Nc3ccc(OCc4cccc(F)c4)c(Cl)c3)ncnc21 (centres undefined)
Response given: active
